Listed here are variants together with their documented protein stability index.
B1: NP_116010.1 (parent)
chain: HSLRAVSTDPPHHDHHDEFCLMP

Variants of: B1
Assay name: protein stability index of a GFP-peptide fusion (GPS, HEK-293T) (PSI 1-6); higher = more stable;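 also: lentivirally expressed fusion library, cells FACS-sorted into six equal-sized GFP/DsRed ratio bins, PSI computed from sequencing read fractions per bin weighted by bin number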
Experimental setup: c terminus: native
Please reply with the number alone, leaving off any unit.

Example results:
>  <Var>
R4F

>  <protein stability index>
2.11

$$$$
>  <Var>
H13Q

>  <protein stability index>
2.59

$$$$
>  <Var>
H16K

>  <protein stability index>
2.81

$$$$
>  <Var>
D17G

>  <protein stability index>
2.11

$$$$
>  <Var>
S2H

>  <protein stability index>
2.69

$$$$

Give the measured protein stability index of F19Y .
2.54

Try H12C next.
2.37

Try S7M next.
2.74

Try D14K next.
2.25

Try S2V next.
2.21

Try L21A next.
2.83

Try T8A next.
2.75

Try L3I next.
2.39

Try H1N next.
3.37

Try V6R next.
2.19

Try L21R next.
2.33

Try S7Y next.
2.31

Try L21E next.
3.53

Values were extracted from the supplement of paper PMC10567573.
